The measured values listed here are drawn from the supplement of paper PMC12042874.

Experimental Protocol: amyloid nucleation score (Sup35N fusion, yeast selection) (log enrichment); library NNK1; higher = more nucleation; inactive = no reads after selection;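 also: zero at mode of non-aggregating sequences after 7 days selection at 30°C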
The reader will find reported amyloid nucleation score values listed item by item below.
Measured Endpoint: amyloid nucleation score

In [3]: df
Out[3]:
                     seq         measured_endpoint  meas_value
 0  NCIVFVSPASTKDCKWGAAS  amyloid nucleation score        1.66
 1    YLIYVMPADVMAYWYCFT  amyloid nucleation score      -0.379
 2  NLTDTKLRDNGKNPALADQV  amyloid nucleation score      -0.226
 3  FAHHLYINRMSRFIDARVTI  amyloid nucleation score        2.37
 4  TFCLLSINLEFINVLRLFKS  amyloid nucleation score        3.58
 5  GIYNLHQFTCLFEAAAIACD  amyloid nucleation score      -0.478
 6  VMADYVDNSHMVVMQTCVCM  amyloid nucleation score        7.67
 7           NWTVFLATNGF  amyloid nucleation score      -0.095
 8         LSSRFAWCIWGET  amyloid nucleation score       0.956
 9  ILFDSHANFVGMSCQYRSGR  amyloid nucleation score        5.72
10            IVFVLQGRRQ  amyloid nucleation score       0.634
11  FCLNHHMVLYSIRRWNVFVY  amyloid nucleation score       -2.16
12        VICSHLVSITYYLY  amyloid nucleation score        3.59
13     KYVSYQGQVDCSCKSVL  amyloid nucleation score      -0.182
14   VFHVAKSRRVTHPSILISL  amyloid nucleation score        1.53

----------
Experimental Protocol: amyloid nucleation score (Sup35N fusion, yeast selection) (log enrichment); library NNK3; higher = more nucleation; inactive = no reads after selection
Measured Endpoint: amyloid nucleation score

In [3]: df
Out[3]:
               substance  meas_value
 0  CRINEWLGIGNSVSSSDHMG    inactive
 1  FVYWNLSAYVRILVVDGNGR    inactive
 2  LSKHEAGTCRLVNDRTHYKA    inactive
 3  VHLGSFDFIFLNMSSTRSLG    inactive
 4  TVRYVYTCFINFQTLVHRRM      -0.784
 5      DSDVWEPCFELEESKL    inactive
 6  MCSRCLFHCGLVVCRVVVPA    inactive
 7  IAVCHLFLQYLCSRSTFMTL    inactive
 8  WCSPQFRLSFYLGISNDHWC       0.966
 9  ALVLNLDRVWVSLTDGPWSD    inactive
10               CGMRNLR    inactive
11  YKKVLLDSFYSDTWSSQGSR    inactive
12  FLLVYWLVLVFPIVGNLMPE    inactive
13      KTRSAMRDLVVSFWYF        1.65
14            RFTMWRNDHC       0.421
15    LRLQIEKTAKNMFEYKAG    inactive
16  SVLIFTMKDFLGEIFINVPT        1.89
17  RVLVHYEVGFSENSRWGSVD       0.481
18          VVITYSFRVQHV    inactive
19  KMGTRGWLSDIAGNMVYVLC    inactive
20               FLIISCS    inactive
21  HKLVFEHRLLVGPRNVDIFL    inactive
22  MFLRVSTTINAYFLRVRSLI    inactive
23  YWYIIYAMSGLWYSSVNRVD    inactive
24  LITEGYAYFLNWVFRYISYW    inactive
25  YVWASIFFFTSYDEVVGRHV        1.46
26        RRTMSSLFFKFDLH    inactive

----------
Experimental Protocol: amyloid nucleation score (Sup35N fusion, yeast selection) (log enrichment); library NNK1; higher = more nucleation; inactive = no reads after selection
Measured Endpoint: amyloid nucleation score

               substance         measured_endpoint  meas_value
 0            VGLGYYNSSK  amyloid nucleation score        0.91
 1       GAVARIIDAVCVRLV  amyloid nucleation score      -0.643
 2                MTPEAL  amyloid nucleation score      -0.063
 3  CFNVYWLFAIGGYGMRLRSD  amyloid nucleation score       -1.04
 4  GNMSPFKNLTFAEQLDAPRD  amyloid nucleation score       0.016
 5           FCVSQVFRDLS  amyloid nucleation score      -0.315
 6          SVVRNESNSLVH  amyloid nucleation score       0.065
 7             AAWDLVVGQ  amyloid nucleation score      -0.473
 8  SDMLYLQLVKLASWFHFNLK  amyloid nucleation score      -0.199
 9       VSPMWVGYSRTSKLW  amyloid nucleation score       0.036
10  AWKGRLAYKWIGNMMAGLVW  amyloid nucleation score       0.005
11  AGVAPYWVPTSEQDQLRRGT  amyloid nucleation score      -0.721
12    NFCLWHNWYVMSVLERGD  amyloid nucleation score        7.89
13  LKMEYHVGRNWSLGKSRAPE  amyloid nucleation score       0.335
14  CWLGCYPSSGEQWGGWFNAI  amyloid nucleation score      -0.344
15  QFLRALGYAERRVGRRWLGW  amyloid nucleation score      -0.065
16     KDHNVGMYLAGENCHLG  amyloid nucleation score       0.915
17  WNIGYNFVSDSLPPRNYFVE  amyloid nucleation score      -0.198
18      VWYVLMSSSVTYYLSR  amyloid nucleation score      -0.075
19       FCFILSNVFLGLWMI  amyloid nucleation score       -1.37
20  ADFKEFECDLARPLLGIKFL  amyloid nucleation score       0.054
21  QYTYFMSGDWSNGRVSLVKK  amyloid nucleation score        2.96
22  LNVTQYVKGSEWKWGSTTSP  amyloid nucleation score       0.176
23             SWCVTCVLA  amyloid nucleation score         7.2
24  DLVYVSRLYISVNRYPSWFV  amyloid nucleation score      -0.462
25       TLRSTWFRMCHTISA  amyloid nucleation score       0.441
26  IASMSVFPSHMCFVGTSTVR  amyloid nucleation score      -0.417
27  YMVSCYLAGNQDSVVCSVKW  amyloid nucleation score        2.23

----------
Experimental Protocol: amyloid nucleation score (Sup35N fusion, yeast selection) (log enrichment); library NNK2; higher = more nucleation; inactive = no reads after selection
Measured Endpoint: amyloid nucleation score

In [3]: df
Out[3]:
                    seq         measured_endpoint  meas_value
0  WIVRFSGCCDVGWTSGVRSY  amyloid nucleation score        6.17
1              FCLIHVVM  amyloid nucleation score        1.32
2  ISPISLTISLLIGYTSGCLR  amyloid nucleation score        3.15
3             VMCFNTMKC  amyloid nucleation score        7.39
4  GATGGLSVCELVRCSELNRG  amyloid nucleation score       0.985
5  SGYPRRIYWLVGKCLWYHRA  amyloid nucleation score       0.921
6  AINCKTGRKLNWIVFGRFTV  amyloid nucleation score      -0.315
7  ATVSDYKVHGSDLFSFTVND  amyloid nucleation score         8.3
8      CMWLLMTHPHKVTIMQ  amyloid nucleation score        7.26

----------
Experimental Protocol: amyloid nucleation score (Sup35N fusion, yeast selection) (log enrichment); library NNK2; higher = more nucleation; inactive = no reads after selection
Classify by amyloid nucleation score. Ranges: low class: < 0.1; middle class: ≥ 0.1 and < 1; high class: ≥ 1

>>> df
              substance   label_class
0      NISHVVNLHAWLYRLL    high class
1          VMYKAFFRYFGR    high class
2  YSKDSMDSYMMIMFGSVACH  middle class
3              TIIRMKLS    high class
4  RPKTEDCGLNLSTVLNQVGH  middle class
5  RTVLGGWMANWASHNILVQC  middle class
6                LMSQCT     low class
7  YLVYKMNNGCLCNIFAPVTE    high class
8  VCYYMWWFVYKHRSWQSGSW     low class
9  WWFLIYLSSYRGNRCILVWF     low class

----------
Below, each entry is listed alongside its reported amyloid nucleation score.
Experimental Protocol: amyloid nucleation score (Sup35N fusion, yeast selection) (log enrichment); library NNK1; higher = more nucleation; inactive = no reads after selection
Measured Endpoint: amyloid nucleation score

In [3]: df
Out[3]:
               substance  meas_value
 0      VRSYDRMFYRDPQDLL      -0.077
 1  SGMYRTNTAMFSFYDTTIVI      -0.091
 2  WSPEMNVVKFTLFYNRSSRF        7.13
 3                FQLRNL       0.414
 4  MRKVYNEWLKTNYYKHMNRV       0.452
 5            NCLRNWHKFI      -0.845
 6  SIYHYCRDIRDCRMSRLELG       0.572
 7  HSCYLYTSLLIFDMCRYWFL       0.719
 8  RYVLFALWWYKVGAEIYNKV        0.48
 9  TNYDFMVCCFKPSMAYGKCM      -0.354
10  ANGLMGSWSLEARSFRSDVL      -0.179
11  YCLQRQRRKGRSRSSMPEDE        1.52
12  RRWYTSHLLWGRNISAGDIL      -0.221
13  PHGKRPGHFLKVLLAFSWRW       0.038
14     YALRFFDDYESAAGSVR      -0.454
15       TIGLCAMYSAARLLV       0.717
16  LVGGCPLTRGRGYGRPRNGG        -1.9
17  PARATMSSLRPTSNLPFFPA      -0.459
18                FWNLVF        1.36
19  SEEGGNTASNRVDWYTTGIV        0.95
20            PTYTGVLSLN       0.341
21  RFFPWQPCNPHIMPLIFWMP       0.692
22           WRSSHNDKMSY      -0.889
23               CTIRYWF         1.5
24  TDKSCRRNGTHAMVHFTPEL       -1.99
25  NFVARSLLPNILAGLRGTGC      -0.139
26  ISCVDWAIKCGVVGSLVSET       0.681
27       GRGRKVYLVDLGSGL      -0.285
28  RETYLALRRYSDLTFINRTL        1.21
29          YTLILREIYWCC      -0.128
30  ALILTVIDHVSAHYYVAEDV        5.59
31  RTNSWAESHRSHCVCATSCG      -0.743
32  RDPRAMQLKSRLGMWKNQWY        0.91
33  TLCQNSGKFCMYTWLSVYVD       0.423
34           STLSVLLSWQN        0.01
35  VNVFRNLFVTTDLWLSSTQN      -0.437
36  WDTTVWMIPFNARVFFVGLC      -0.083
37  TDADYTPHVQSVPYYAHLII        3.88
38  DLVTSYWKIEGPILRSGGNM      -0.563
39  YIMILSYAVNKSYFTRLSCN      -0.459
40  MPGLWVFASALTQQEGTLEM      -0.251
41  VYSQINSRHWEFMDLELSLG       0.147
42        TVRGSAFLIKWKLI       -0.86
43  FLRALCSVGSRHTTPAFDYG       0.351
44             FPWSGAWMD       0.029
45  YLDSSFFCFLVAIKMDDARH        6.08
46  SWTVGSMLSLDIWHRVYLTT      -0.058
